measurement description: Pharmacokinetics after intravenous administration in rats (LC-MS)
condition label: male, Sprague-Dawley, rat, in vivo, iv, 1 mg/kg, Plasma concentration, Mean, IV 1 mg/kg; 8.0 hr; mean of 3 rats
assay metric: concentration at 8 hr (ng/mL)

compound: NC(=O)N(CCC(=O)O)NC(=O)[C@H](CO)NC(=O)[C@H](CO)NC(=O)N(N)Cc1ccccc1 [K883]
meas value: 1.52

---

measurement description: Pharmacokinetics after intravenous administration in rats (LC-MS)
condition label: male, Sprague-Dawley, rat, in vivo, iv, 1 mg/kg, Plasma concentration, individual rats, IV 1 mg/kg; 0.50 hr

molecule: NC(=O)N(CCC(=O)O)NC(=O)[C@H](CO)NC(=O)[C@H](CO)NC(=O)N(N)Cc1ccccc1 [K883]
readout unit: µg/mL
concentration at 0.5 hr: 3.02
